Entries and their elastase inhibition
# Tested on: elastase
# assayOverview: Elastase inhibition assay
# Type: biochemical
# conditionsUsed: 100 µM
Quick note: give the figure in %, leave out the unit.

Below: 4 compounds and their reported elastase inhibition.
{"columns": ["compound", "elastase inhibition (%)"],
 "data": [
  ["C/C(=C\\COC(=O)c1ccc(Cl)cc1)CCC[C@H](C)CCC[C@H](C)CCCC(C)C [Compound 1e, Phytyl 4-chlorobenzoate]", 27.78],
  ["C/C(=C\\COC(=O)c1ccco1)CCC[C@H](C)CCC[C@H](C)CCCC(C)C [Compound 1h, Phytyl 2-furoate]", 28.3],
  ["C/C(=C\\COC(=O)c1ccccc1)CCC[C@@H](C)CCC[C@@H](C)CCCC(C)C (stereo in doubt) [Compound 1a, Phytyl benzoate]", 43.28],
  ["CC(=CCO)CCCC(C)CCCC(C)CCCC(C)C (stereo not shown) [Compound 1, 3,7,11,15-tetramethylhexadec-2-en-1-ol, reference compound]", 6.4]
]}

So, C/C(=C\COC(=O)c1cccs1)CCC[C@H](C)CCC[C@H](C)CCCC(C)C [Compound 1i, Phytyl 2-thiophenecarbonoate] ? Its elastase inhibition was 18.19

FYI, the data here is from paper PMC11510177.
